# EXPERIMENTAL_SYSTEM: T1, human CD33 (human, UniProt P20138 18-364)
# T1 construct: CD33 on human primary dendritic cells, macrophages, monocytes and T cells and on CHO cells expressing recombinant human CD33; also called Siglec-3; hCD33
# T1 sequence (P20138 18-364): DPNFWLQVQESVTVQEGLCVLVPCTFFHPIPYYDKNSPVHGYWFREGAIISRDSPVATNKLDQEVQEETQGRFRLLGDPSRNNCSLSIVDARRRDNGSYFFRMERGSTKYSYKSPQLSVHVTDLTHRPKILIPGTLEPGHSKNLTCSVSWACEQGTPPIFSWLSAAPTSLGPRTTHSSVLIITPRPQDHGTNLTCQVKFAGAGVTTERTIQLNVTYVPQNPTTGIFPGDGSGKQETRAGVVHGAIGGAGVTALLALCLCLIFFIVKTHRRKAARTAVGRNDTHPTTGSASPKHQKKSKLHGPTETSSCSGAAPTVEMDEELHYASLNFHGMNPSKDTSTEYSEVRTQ
# ASSAY_REMARKS: flow cytometry, human primary macrophages;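 further: binding of CD33 antibodies at 10 µg/ml to human primary macrophages, 1 h on ice, detected with PE-labelled secondary antibody by flow cytometry, reported as MFI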
Provide the recorded Macrophage MFI for the entries that follow.
Number only, no unit.

Kindly note the recorded Macrophage MFI for C-9 (antibody, V domains shown, human IgG1) VH: QLQLQESGPGLVKPSETLSLTCTVSGGSISSSSYYWGWIRQPPGKGLEWIGSIYYSGSTYYNPSLKSRVTISVDTSKNQFSLKLSSVTAADTAVYYCARESGFAGLDPWGQGTLVTVSS VL: EIVLTQSPGTLSLSPGERATLSCRASQSVSSSFLAWYQQKPGQAPRLLIYGASSRATGIPDRFSGSGSGTDFTLTISRLEPEDFAVYYCQQSEDWPTFGGGTKVEIK , which is 886

Kindly note the recorded Macrophage MFI for C-26 (antibody, V domains shown, human IgG1) VH: QLQLQESGPGLVKPSETLSLTCTVSGGSISSNSYYWGWIRQPPGKGLEWIGSIYYSGSTYYNPSLKSRVTISVDTSKNQFSLKLSSVTAADTAVYYCARSPVYYDSSGYFQYYGMDVWGQGTTVTVSS VL: EIVLTQSPATLSLSPGERATLSCRASQSVSSYLAWYQQKPGQAPRLLIYDASKRATGIPARFSGSGSGTDFTLTISSLEPEDFAVYYCQQSIVWPPFTFGGGTKVEIK , which is 926

Kindly note the recorded Macrophage MFI for C-25 (antibody, V domains shown, human IgG1) VH: EVQLVESGGGLVQPGGSLRLSCAASGFTFSSYWMSWVRQAPGKGLEWVANIKSDGSEKYYVDSVKGRFTISRDNAKNSLYLQMNSLRAEDTAVYYCAREGFRDGINWFDPWGQGTLVTVSS VL: DIQMTQSPSSLSASVGDRVTITCRASQSISRYLNWYQQKPGKAPKLLIYAASSLQSGVPSRFSGSGSGTDFTLTISSLQPEDFATYYCQQQFLTPITFGGGTKVEIK , which is 877

Kindly note the recorded Macrophage MFI for C-65 (antibody, V domains shown, human IgG1) VH: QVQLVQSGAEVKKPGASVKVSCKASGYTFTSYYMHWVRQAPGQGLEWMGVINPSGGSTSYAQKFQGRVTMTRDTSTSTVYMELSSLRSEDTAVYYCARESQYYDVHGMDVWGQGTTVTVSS VL: DIQMTQSPSSLSASVGDRVTITCRASQSISSYLNWYQQKPGKAPKLLIYAASSLQSGVPSRFSGSGSGTDFTLTISSLQPEDFATYYCQQQYTLPPTFGGGTKVEIK , which is 852

Kindly note the recorded Macrophage MFI for C-33 (antibody, V domains shown, human IgG1) VH: EVQLVESGGGLVQPGGSLRLSCAASGFTFSSYWMSWVRQAPGKGLEWVANIKSDGSEKYYVDSVKGRFTISRDNAKNSLYLQMNSLRAEDTAVYYCAREGRPRLGYAAFDIWGQGTMVTVSS VL: DIQMTQSPSSLSASVGDRVTITCRASQSISSYLNWYQQKPGKAPKLLIYAASSLQSGVPSRFSGSGSGTDFTLTISSLQPEDFATYYCQQQYDLPITFGGGTKVEIK , which is 753
